System Name: T1, Cyno ASGR-1 (cynomolgus monkey, UniProt P07306 1-291 (human entry))
T1 construct: Expressed on HEK 293 cells or as membrane prep on beads; cDNA from XP_005582755; also called cynomologus monkey ASGR-1
T1 chain: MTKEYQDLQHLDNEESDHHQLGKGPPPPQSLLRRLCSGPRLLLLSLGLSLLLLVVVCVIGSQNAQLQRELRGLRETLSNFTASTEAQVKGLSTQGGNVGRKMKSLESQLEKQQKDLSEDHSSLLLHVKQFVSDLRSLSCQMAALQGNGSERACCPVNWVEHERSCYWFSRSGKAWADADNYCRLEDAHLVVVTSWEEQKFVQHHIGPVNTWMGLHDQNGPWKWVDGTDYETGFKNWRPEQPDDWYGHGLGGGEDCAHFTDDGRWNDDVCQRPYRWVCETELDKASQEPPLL
Run Description: FACS on transfected HEK 293 cells or membrane preps on beads; Y = signal at least 2x irrelevant IgG
Outcome Measure: binding result

Solved cases (8 shown):
Binder	binding result
22G5 (antibody, V domains shown, Tested as hybridoma supernatant at normalized concentration) VH: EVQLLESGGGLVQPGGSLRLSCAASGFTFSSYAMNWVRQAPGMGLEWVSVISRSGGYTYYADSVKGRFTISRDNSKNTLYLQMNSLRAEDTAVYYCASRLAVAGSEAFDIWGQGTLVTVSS VL: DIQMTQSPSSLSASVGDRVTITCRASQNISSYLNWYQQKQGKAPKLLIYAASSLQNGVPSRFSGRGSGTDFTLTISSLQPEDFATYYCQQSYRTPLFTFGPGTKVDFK	binds
194A4 (antibody, V domains shown, Tested as hybridoma supernatant at normalized concentration) VH: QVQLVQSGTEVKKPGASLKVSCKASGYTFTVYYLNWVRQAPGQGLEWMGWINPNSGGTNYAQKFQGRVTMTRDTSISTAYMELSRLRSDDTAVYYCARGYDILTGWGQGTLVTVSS VL: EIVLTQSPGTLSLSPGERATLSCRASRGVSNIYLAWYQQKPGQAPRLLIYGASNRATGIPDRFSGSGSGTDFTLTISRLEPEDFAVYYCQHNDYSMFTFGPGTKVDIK	binds
194C1 (antibody, V domains shown, Tested as hybridoma supernatant at normalized concentration) VH: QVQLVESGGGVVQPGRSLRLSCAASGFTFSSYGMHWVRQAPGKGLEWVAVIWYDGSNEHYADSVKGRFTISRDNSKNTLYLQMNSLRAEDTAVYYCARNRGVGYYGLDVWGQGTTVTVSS VL: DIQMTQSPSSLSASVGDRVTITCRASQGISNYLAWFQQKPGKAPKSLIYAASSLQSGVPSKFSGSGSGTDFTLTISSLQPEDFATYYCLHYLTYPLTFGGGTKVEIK	binds
72G9 (antibody, V domains shown, Tested as hybridoma supernatant at normalized concentration) VH: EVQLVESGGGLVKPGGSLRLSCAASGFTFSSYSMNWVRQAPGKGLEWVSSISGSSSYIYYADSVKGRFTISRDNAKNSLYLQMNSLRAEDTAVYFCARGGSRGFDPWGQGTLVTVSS VL: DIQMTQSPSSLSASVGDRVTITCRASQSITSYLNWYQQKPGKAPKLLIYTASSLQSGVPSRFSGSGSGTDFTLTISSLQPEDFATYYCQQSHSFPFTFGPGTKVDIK	binds
48B12 (antibody, V domains shown, Tested as hybridoma supernatant at normalized concentration) VH: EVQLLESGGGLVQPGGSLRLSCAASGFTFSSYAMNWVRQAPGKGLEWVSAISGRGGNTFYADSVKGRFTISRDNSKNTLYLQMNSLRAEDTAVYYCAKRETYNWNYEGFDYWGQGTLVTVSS VL: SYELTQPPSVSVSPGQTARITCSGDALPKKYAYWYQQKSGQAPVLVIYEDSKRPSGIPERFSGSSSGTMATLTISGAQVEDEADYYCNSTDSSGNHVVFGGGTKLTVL	binds
193E7 (antibody, V domains shown, Tested as hybridoma supernatant at normalized concentration) VH: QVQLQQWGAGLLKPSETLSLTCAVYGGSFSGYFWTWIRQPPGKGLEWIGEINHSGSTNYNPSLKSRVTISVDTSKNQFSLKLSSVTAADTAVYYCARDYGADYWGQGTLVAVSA VL: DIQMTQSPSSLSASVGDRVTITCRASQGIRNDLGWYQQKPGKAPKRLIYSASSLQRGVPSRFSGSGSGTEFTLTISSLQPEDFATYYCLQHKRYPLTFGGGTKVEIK	binds
184E7 (antibody, V domains shown, Tested as hybridoma supernatant at normalized concentration) VH: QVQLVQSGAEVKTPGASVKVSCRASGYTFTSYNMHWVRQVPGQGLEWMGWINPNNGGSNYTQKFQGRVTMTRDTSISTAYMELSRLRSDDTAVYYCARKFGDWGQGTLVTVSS VL: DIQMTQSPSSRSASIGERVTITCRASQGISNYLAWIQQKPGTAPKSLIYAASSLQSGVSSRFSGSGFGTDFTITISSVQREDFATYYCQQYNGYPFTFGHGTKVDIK	binds
5E5 (antibody, V domains shown, Tested as hybridoma supernatant at normalized concentration) VH: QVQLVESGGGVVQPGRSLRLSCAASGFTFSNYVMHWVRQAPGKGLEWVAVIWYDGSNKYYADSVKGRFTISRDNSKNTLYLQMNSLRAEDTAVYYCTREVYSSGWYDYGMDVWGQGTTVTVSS VL: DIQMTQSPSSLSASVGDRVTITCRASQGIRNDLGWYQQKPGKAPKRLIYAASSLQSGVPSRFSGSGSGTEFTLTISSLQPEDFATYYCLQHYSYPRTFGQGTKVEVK	binds

Query string: Field request: binding result | item: 198D2 (antibody, V domains shown, Tested as hybridoma supernatant at normalized concentration) VH: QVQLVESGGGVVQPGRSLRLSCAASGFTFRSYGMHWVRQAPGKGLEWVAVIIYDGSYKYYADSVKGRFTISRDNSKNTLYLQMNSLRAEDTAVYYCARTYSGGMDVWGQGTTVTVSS VL: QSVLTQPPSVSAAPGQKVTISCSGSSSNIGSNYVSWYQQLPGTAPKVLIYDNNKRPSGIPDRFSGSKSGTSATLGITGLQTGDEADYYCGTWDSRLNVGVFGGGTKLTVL
Result string: binds

Query string: Field request: binding result | item: 75G3 (antibody, V domains shown, Tested as hybridoma supernatant at normalized concentration) VH: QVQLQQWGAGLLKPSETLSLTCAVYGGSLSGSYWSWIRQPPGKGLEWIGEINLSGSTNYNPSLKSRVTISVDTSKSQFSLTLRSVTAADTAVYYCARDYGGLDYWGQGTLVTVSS VL: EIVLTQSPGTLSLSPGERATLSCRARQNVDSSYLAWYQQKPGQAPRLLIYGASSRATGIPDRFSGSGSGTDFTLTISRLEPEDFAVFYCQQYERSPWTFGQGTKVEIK
Result string: binds

Recorded values, source patent US20190248902A1.
